The measurements presented in this section are drawn from patent US12662489B2.

Test Target: MTHFD2 recombinant human enzyme (Homo sapiens, UniProt P13995)
Sequence (P13995 36-350): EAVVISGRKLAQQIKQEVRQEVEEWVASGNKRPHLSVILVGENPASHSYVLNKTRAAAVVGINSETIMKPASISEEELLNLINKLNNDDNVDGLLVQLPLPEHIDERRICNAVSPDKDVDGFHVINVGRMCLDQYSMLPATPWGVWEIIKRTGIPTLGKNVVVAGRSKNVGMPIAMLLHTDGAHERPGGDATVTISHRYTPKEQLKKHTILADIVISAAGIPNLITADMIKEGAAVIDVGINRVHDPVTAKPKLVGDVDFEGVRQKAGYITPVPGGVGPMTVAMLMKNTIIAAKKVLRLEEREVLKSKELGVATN
Protocol: MTHFD2 inhibition assay (NAD(P)H-Glo luminescence)
pIC50: −log10 of the molar value.
Measure Name: pIC50

pIC50 measured on CCOc1cc(C(=O)N2CCc3c(c(=O)oc4c(C)c(N5CCN(C)[C@@H](COC)C5)cc(C)c34)C2)c(F)cc1C(=O)NS(=O)(=O)N1CCCC1 = 7.00 to 8.00

pIC50 measured on CCOc1cc(C(=O)N2CCc3c(c(=O)oc4c(C)c(N5CCN(C)[C@@H](COC)C5)cc(C)c34)C2)c(F)cc1C(=O)NS(=O)(=O)N1C2CCC1CC2 = 7.00 to 8.00

pIC50 measured on COC[C@H]1CN(c2ccc3c4c(c(=O)oc3c2C)CN(C(=O)c2cc(N(C)C)c(C(=O)NS(=O)(=O)N3CCC5(CC3)CC5)cc2Cl)CC4)CCN1C = 6.00 to 7.00

pIC50 measured on COC[C@H]1CN(c2cc(C)c3c4c(c(=O)oc3c2C)CN(C(=O)c2cc(N(C)C)c(C(=O)NS(=O)(=O)N3CCC[C@@H]3C(F)(F)F)cc2F)CC4)CCN1C = 7.00 to 8.00

pIC50 measured on CCOc1c(C(=O)NS(=O)(=O)N2CC3CC3C2)ccc(C(=O)N2CCc3c(c(=O)oc4c(Cl)c(N5CCN(C)[C@@H](COC)C5)ccc34)C2)c1F (some centres unmarked) = 7.00 to 8.00

pIC50 measured on Cc1c(N2CCN3CCOC[C@H]3C2)ccc2c3c(c(=O)oc12)CN(C(=O)c1ccc(C(=O)NS(=O)(=O)N2CCCC2)c(OC2CCC2)c1)CC3 = 6.00 to 7.00

pIC50 measured on COC[C@H]1CN(c2cc(Cl)c3c4c(c(=O)oc3c2C)CN(C(=O)c2cc(N(C)C)c(C(=O)NS(=O)(=O)N3C[C@H]5C[C@@H]3CO5)cc2F)CC4)CCN1C = 7.00 to 8.00

pIC50 measured on COC[C@H]1CN(c2cc(C)c3c4c(c(=O)oc3c2C)CN(C(=O)c2ccc(C(=O)NS(=O)(=O)N3CC5CCCCC5C3)cc2)CC4)CCN1C (some centres unmarked) = 7.00 to 8.00

pIC50 measured on COC[C@H]1CN(c2cc(C)c3c4c(c(=O)oc3c2C)CN(C(=O)c2cc(N(C)C)c(C(=O)NS(=O)(=O)C3(C)CC3)cc2C(F)(F)F)CC4)CCN1C = 6.00 to 7.00

pIC50 measured on [2H]C([2H])([2H])Oc1c(C(=O)NS(=O)(=O)N2C3CCC2CC3)ccc(C(=O)N2CCc3c(c(=O)oc4c(C)c(N5CCN(C)[C@@H](COC)C5)cc(C)c34)C2)c1F = 8.00 to 9.00

pIC50 measured on COC[C@H]1CN(c2cc(Cl)c3c4c(c(=O)oc3c2C)CN(C(=O)c2cc(N(C)C)c(C(=O)NS(=O)(=O)N3C5CCC3COC5)cc2F)CC4)CCN1C = 8.00 to 9.00
